Values from patent US20100184701A1

A collection of binders and their measured b-arrestin2 EC50
test-target: T1, human angiotensin 2 type 1 receptor (human, UniProt P30556 1-359)
T1 sequence (looked up): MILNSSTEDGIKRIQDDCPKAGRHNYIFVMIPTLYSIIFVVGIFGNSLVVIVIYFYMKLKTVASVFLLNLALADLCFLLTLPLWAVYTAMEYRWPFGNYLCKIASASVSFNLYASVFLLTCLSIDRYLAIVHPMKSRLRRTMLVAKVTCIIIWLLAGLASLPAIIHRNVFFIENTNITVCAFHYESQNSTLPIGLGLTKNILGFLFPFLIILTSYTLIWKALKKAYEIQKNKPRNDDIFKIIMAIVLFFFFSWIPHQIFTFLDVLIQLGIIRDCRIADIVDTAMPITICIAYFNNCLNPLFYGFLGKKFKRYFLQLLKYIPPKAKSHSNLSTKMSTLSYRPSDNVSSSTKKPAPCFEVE
assay-procedure: cell-based or functional assay
Non-standard residues stand in square brackets, D forms with d. No end group written: not given here. Sar = CNCC(=O)O
Give the quantity in µM, number only.

[
  {
    "binder": "[Sar]RVYFHP-NH2 (N-terminus assumed; SMILES CNCC(=O)N[C@@H](CCCNC(=N)N)C(=O)N[C@H](C(=O)N[C@@H](Cc1ccc(O)cc1)C(=O)N[C@@H](Cc1ccccc1)C(=O)N[C@@H](Cc1c[nH]cn1)C(=O)N1CCC[C@H]1C(N)=O)C(C)C) [SEQ ID NO: 41]",
    "b-arrestin2 EC50 (µM)": 1.6
  }
]

Next binder, b-arrestin2 EC50 to be filled in.
Item under review: ERVYYHP (C-terminal amide (NH2)) [SEQ ID NO: 59] . Reported b-arrestin2 EC50?
1.4
